protocol-notes: Plasma stability assay, dog plasma
Format: in vitro ADME
condition-description: 2 μM, 37° C., 15 min (head)
In this section we review reported % remaining at time point values for a set of molecules.

[
  {
    "molecule": "C=C1CC[C@@]2(O)C3Cc4ccc(OC(=O)OCCCCCCCCCCCC)c5c4[C@@]2(CCN3CC2CC2)[C@H]1O5",
    "unit-tag": "%",
    "% remaining at time point": 89.1
  },
  {
    "molecule": "CCCCCCCCCCCCCCCC(=O)OC1CCCn2c1nc(C)c(CCN1CCC(c3noc4cc(F)ccc34)CC1)c2=O (centres unmarked) [Paliperidone palmitate, reference compound]",
    "unit-tag": "%",
    "% remaining at time point": 91.2
  },
  {
    "molecule": "C=C1CC[C@@]2(O)C3Cc4ccc(OCOC(=O)OCCCCCCCCCCCC)c5c4[C@@]2(CCN3CC2CC2)[C@H]1O5",
    "unit-tag": "%",
    "% remaining at time point": 94.7
  },
  {
    "molecule": "C=C1CC[C@@]2(O)C3Cc4ccc(OC(=O)CCCCCCC/C=C/CCCCCCCC)c5c4[C@@]2(CCN3CC2CC2)[C@H]1O5",
    "unit-tag": "%",
    "% remaining at time point": 82.5
  },
  {
    "molecule": "CCCCCCCCCCCC(=O)OCN1C(=O)CCc2ccc(OCCCCN3CCN(c4cccc(Cl)c4Cl)CC3)cc21 [Aripiprazole Lauroxil, reference compound]",
    "unit-tag": "%",
    "% remaining at time point": 103
  }
]

====

Examples of molecules with documented Approximate Solubility (mg/mL) in Excipient: Cottonseed oil follow.
condition-description: Cottonseed oil; heating temp. 60 °C, obs. temp. 25 °C
value-type: Approximate Solubility (mg/mL) in Excipient: Cottonseed oil

[
  {
    "mol-smiles": "C=C1CC[C@@]2(O)C3Cc4ccc(OC(=O)OCCCCCCCCCC)c5c4[C@@]2(CCN3CC2CC2)[C@H]1O5",
    "val": ">400 mg/mL"
  },
  {
    "mol-smiles": "C=C1CC[C@@]2(O)C3Cc4ccc(OC(=O)OCCCCCCCCCCCCC)c5c4[C@@]2(CCN3CC2CC2)[C@H]1O5",
    "val": "252.5 to 404.06 mg/mL"
  },
  {
    "mol-smiles": "CCCCCCCCCCCCOC(=O)Oc1ccc2c3c1O[C@H]1C(=O)CC[C@@]4(O)C(C2)N(CC2CC2)CC[C@]314",
    "val": "<51 mg/mL"
  },
  {
    "mol-smiles": "C=C1CC[C@@]2(O)C3Cc4ccc(OC(=O)OCCCCCCCCCCCC)c5c4[C@@]2(CCN3CC2CC2)[C@H]1O5",
    "val": ">397 mg/mL"
  },
  {
    "mol-smiles": "C=C1CC[C@@]2(O)C3Cc4ccc(OC(=O)CCCCCCC/C=C\\CCCCCCCC)c5c4[C@@]2(CCN3CC2CC2)[C@H]1O5",
    "val": ">407 mg/mL"
  },
  {
    "mol-smiles": "CCCCC/C=C\\C/C=C\\CCCCCCCC(=O)Oc1ccc2c3c1O[C@H]1C(=O)CC[C@@]4(O)C(C2)N(CC2CC2)CC[C@]314",
    "val": ">408.5 mg/mL"
  }
]

====

Reported Approximate Solubility (mg/mL) in Excipient: Ethanol values follow for various compounds
condition-description: Ethanol; heating temp. 40 °C, obs. temp. 40 °C
value-type: Approximate Solubility (mg/mL) in Excipient: Ethanol

[
  {
    "mol-smiles": "C=C1CC[C@@]2(O)C3Cc4ccc(OC(=O)OCCCCCCCCCCCCCCCC)c5c4[C@@]2(CCN3CC2CC2)[C@H]1O5",
    "val": "27 to 42 mg/mL"
  },
  {
    "mol-smiles": "C=C1CC[C@@]2(O)C3Cc4ccc(OC(=O)CCCCCCC/C=C/CCCCCCCC)c5c4[C@@]2(CCN3CC2CC2)[C@H]1O5",
    "val": "<20 mg/mL"
  },
  {
    "mol-smiles": "CCCCCCCCCCCCOC(=O)Oc1ccc2c3c1O[C@H]1C(=O)CC[C@@]4(O)C(C2)N(CC2CC2)CC[C@]314",
    "val": ">218 mg/mL"
  },
  {
    "mol-smiles": "C=C1CC[C@@]2(O)C3Cc4ccc(OC(=O)OCCCCCCCCCC)c5c4[C@@]2(CCN3CC2CC2)[C@H]1O5",
    "val": ">209 mg/mL"
  },
  {
    "mol-smiles": "C=C1CC[C@@]2(O)C3Cc4ccc(OC(=O)OCCCCCCCCCCCC)c5c4[C@@]2(CCN3CC2CC2)[C@H]1O5",
    "val": "120 to 170 mg/mL"
  },
  {
    "mol-smiles": "C=C1CC[C@@]2(O)C3Cc4ccc(OC(=O)CCCCCCC/C=C\\C/C=C\\C/C=C\\CC)c5c4[C@@]2(CCN3CC2CC2)[C@H]1O5",
    "val": "157 to 197 mg/mL"
  },
  {
    "mol-smiles": "C=C1CC[C@@]2(O)C3Cc4ccc(OC(=O)CCCCCCC/C=C\\C/C=C\\CCCCC)c5c4[C@@]2(CCN3CC2CC2)[C@H]1O5",
    "val": "75 to 90 mg/mL"
  }
]

====

protocol-notes: Plasma stability assay, monkey plasma
Type: in vitro ADME, cynomolgus monkey
condition-description: 2 μM, 37° C., 480 min (head)
value-type: % remaining at time point (%)

[
  {
    "molecule": "CCCCCCCCCCCC(=O)OCN1C(=O)CCc2ccc(OCCCCN3CCN(c4cccc(Cl)c4Cl)CC3)cc21 [Aripiprazole Lauroxil, reference compound]",
    "value-type": "% remaining at time point",
    "val": 75.5
  },
  {
    "molecule": "C=C1CC[C@@]2(O)C3Cc4ccc(OCOC(=O)OCCCCCCCCCCCC)c5c4[C@@]2(CCN3CC2CC2)[C@H]1O5 [Compound 24]",
    "value-type": "% remaining at time point",
    "val": 96.2
  },
  {
    "molecule": "C=C1CC[C@@]2(O)C3Cc4ccc(OC(=O)OCCCCCCCCCCCC)c5c4[C@@]2(CCN3CC2CC2)[C@H]1O5 [Compound 6]",
    "value-type": "% remaining at time point",
    "val": 68.4
  },
  {
    "molecule": "C=C1CC[C@@]2(O)C3Cc4ccc(OC(=O)CCCCCCC/C=C/CCCCCCCC)c5c4[C@@]2(CCN3CC2CC2)[C@H]1O5 [Compound 15]",
    "value-type": "% remaining at time point",
    "val": 80.6
  },
  {
    "molecule": "CCCCCCCCCCCCCCCC(=O)OC1CCCn2c1nc(C)c(CCN1CCC(c3noc4cc(F)ccc34)CC1)c2=O (centres unmarked) [Paliperidone palmitate, reference compound]",
    "value-type": "% remaining at time point",
    "val": 98.4
  }
]

====

Listing of recorded Equilibrium solubility (mg/mL) Water by entry.
condition-description: Water; heating temp. 40 °C, obs. temp. 40 °C
value-type: Equilibrium solubility (mg/mL) Water

[
  {
    "mol-smiles": "C=C1CC[C@@]2(O)C3Cc4ccc(OC(=O)OCCCCCCCCCCCCCCCCCCCC)c5c4[C@@]2(CCN3CC2CC2)[C@H]1O5",
    "value-type": "Equilibrium solubility (mg/mL) Water",
    "val": "<0.001 mg/mL"
  },
  {
    "mol-smiles": "CCCCCCCCCCCCOC(=O)OCOc1ccc2c3c1O[C@H]1C(=O)CC[C@@]4(O)C(C2)N(CC2CC2)CC[C@]314",
    "value-type": "Equilibrium solubility (mg/mL) Water",
    "val": "<0.001 mg/mL"
  },
  {
    "mol-smiles": "C=C1CC[C@@]2(O)C3Cc4ccc(OCOC(=O)CCCCCCCCCCC)c5c4[C@@]2(CCN3CC2CC2)[C@H]1O5",
    "value-type": "Equilibrium solubility (mg/mL) Water",
    "val": "<0.001 mg/mL"
  }
]

====

protocol-notes: Plasma stability assay, dog plasma
Type: in vitro ADME
condition-description: 2 μM, 37° C., 480 min (head)

[
  {
    "compound": "C=C1CC[C@@]2(O)C3Cc4ccc(OC(=O)OCCCCCCCCCCCC)c5c4[C@@]2(CCN3CC2CC2)[C@H]1O5",
    "% remaining at time point [%]": 107.2
  },
  {
    "compound": "C=C1CC[C@@]2(O)C3Cc4ccc(OC(=O)CCCCCCC/C=C/CCCCCCCC)c5c4[C@@]2(CCN3CC2CC2)[C@H]1O5",
    "% remaining at time point [%]": 90.1
  },
  {
    "compound": "C=C1CC[C@@]2(O)C3Cc4ccc(OCOC(=O)OCCCCCCCCCCCC)c5c4[C@@]2(CCN3CC2CC2)[C@H]1O5",
    "% remaining at time point [%]": 115.7
  },
  {
    "compound": "CCCCCCCCCCCC(=O)OCN1C(=O)CCc2ccc(OCCCCN3CCN(c4cccc(Cl)c4Cl)CC3)cc21 [Aripiprazole Lauroxil, reference compound]",
    "% remaining at time point [%]": 78.6
  },
  {
    "compound": "CCCCCCCCCCCCCCCC(=O)OC1CCCn2c1nc(C)c(CCN1CCC(c3noc4cc(F)ccc34)CC1)c2=O (centres unmarked) [Paliperidone palmitate, reference compound]",
    "% remaining at time point [%]": 95.9
  }
]
